- Tested on: Vero CCL-81 cells
- Condition Summary: African green monkey
Readout Kind: CC50 (µM)
Give your result in µM as a bare value.

Q: Fill in reported CC50 for this entry: CCC(CC)COC(=O)[C@H](C)N[P@](=O)(OC[C@H]1O[C@@](C#N)(c2ccc3c(N)ncnn23)[C@H](O)[C@@H]1O)Oc1ccccc1 [Remdesivir, reference compound]
Result: 172

---

CC50 overview
- Procedure Summary: in vitro
- Condition Summary: African green monkey, Cytotoxic Concentration 50 (CC50)
Give your result in nM as a bare value.

Some compounds with recorded CC50:
Compound	Readout Kind	Unit Tag	Test Result
COC(=O)Nc1ccc2c3c(c4cc(OC)c(OC)cc4c2c1)CC1CCCCN1C3 (centres unmarked) [Compound 3]	CC50	nM	317
COc1cc2c3c(c4ccc(NS(C)(=O)=O)cc4c2cc1OC)CN1CCCC[C@@H]1C3 [Compound 2]	CC50	nM	126
COc1cc2c3c(c4ccc(NS(C)(=O)=O)cc4c2cc1OC)CN1CCC[C@@H]1C3 [Compound 1]	CC50	nM	1820
COc1ccc2c3c(c4cc(OC)c(OC)cc4c2c1)C[C@H]1CCCN1C3 [antofine, reference compound]	CC50	nM	872

Consider the additional compound presented here.
Q: Fill in reported CC50 for this entry: CCC(CC)COC(=O)[C@H](C)N[P@](=O)(OC[C@H]1O[C@@](C#N)(c2ccc3c(N)ncnn23)[C@H](O)[C@@H]1O)Oc1ccccc1 [Remdesivir, reference compound]
Result: 172000
